Attribute: emitted dose, Mean
- Experiment Summary: Total emitted dose of the APIs from pMDI prototype formulations, HPLC assay
- Assay type: physicochemical
- Design: unit not given here
- Cond: Mean of ED 1 to ED 8; pMDI Formulation 1-4

Recorded emitted dose, Mean, per entry:
Compound	Recorded Result
CCCCCc1cc(O)c(C/C=C(\C)CCC=C(C)C)c(O)c1 [CBG, cannabigerol]	335.2
CCCCCc1cc(O)c2c(c1)OC(C)(C)c1ccc(C)cc1-2 [CBN, cannabinol]	259.6
C=C(C)[C@@H]1CCC(C)=C[C@H]1c1c(O)cc(CCC)cc1O [CBDV, cannabidivarin]	272.0

Per the records, this compound ( C[N+]1(C)CCC(OC(=O)C(O)(c2ccccc2)C2CCCC2)C1 (stereo not drawn) [Glycopyrronium, glycopyrronium, reference compound] ) has emitted dose, Mean equal to 29.0

Per the records, this compound ( C=C(C)[C@@H]1CCC(C)=C[C@H]1c1c(O)cc(CCCCC)cc1O [CBD, cannabidiol, reference compound] ) has emitted dose, Mean equal to 298.0

Per the records, this compound ( CCCCCc1cc(O)c2c(c1)OC(C)(CCC=C(C)C)C=C2 (stereo not drawn) [CBC, cannabichromene] ) has emitted dose, Mean equal to 266.1

###

Attribute: % Fine Particle Dose
- Experiment Summary: Next Generation Impactor (NGI) testing of pMDI prototype formulations
- Format: physicochemical
- Cond: Formulation 2
Respond numerically; units are % and should not be typed.

Compound	Measure Unit	% Fine Particle Dose
CCCCCc1cc(O)c(C/C=C(\C)CCC=C(C)C)c(O)c1 [CBG, cannabigerol]	%	39
C=C(C)[C@@H]1CCC(C)=C[C@H]1c1c(O)cc(CCCCC)cc1O [CBD, cannabidiol, reference compound]	%	37
C[N+]1(C)CCC(OC(=O)C(O)(c2ccccc2)C2CCCC2)C1 (stereo not shown) [Glycopyrronium, glycopyrronium, reference compound]	%	28

# next compound below
Per the records, this compound ( CCCCCc1cc(O)c2c(c1)OC(C)(C)c1ccc(C)cc1-2 [CBN, cannabinol] ) has % Fine Particle Dose equal to 35

###

- Experiment Summary: Next Generation Impactor (NGI) testing of pMDI prototype formulations
- Format: physicochemical
- Cond: Formulation 3
Property: MMAD (µm)
Respond numerically; units are µm and should not be typed.

Recorded MMAD, per entry:
Molecule	Property	Recorded Result
C[N+]1(C)CCC(OC(=O)C(O)(c2ccccc2)C2CCCC2)C1 (stereo not shown) [Glycopyrronium, glycopyrronium, reference compound]	MMAD	5.1
CCCCCc1cc(O)c(C/C=C(\C)CCC=C(C)C)c(O)c1	MMAD	4.5

Per the records, this molecule ( C=C(C)[C@@H]1CCC(C)=C[C@H]1c1c(O)cc(CCC)cc1O ) has MMAD equal to 4.6

Per the records, this molecule ( C=C(C)[C@@H]1CCC(C)=C[C@H]1c1c(O)cc(CCCCC)cc1O [CBD, cannabidiol, reference compound] ) has MMAD equal to 4.4

###

Attribute: emitted dose
- Experiment Summary: Total emitted dose of the APIs from pMDI prototype formulations, HPLC assay
- Type: physicochemical
- Parameters: unit not given here
- Cond: ED 7; pMDI Formulation 1-4
The reply should be a number, written without any unit.

Molecule	Property	Recorded Result
C[N+]1(C)CCC(OC(=O)C(O)(c2ccccc2)C2CCCC2)C1 (stereo not drawn) [Glycopyrronium, glycopyrronium, reference compound]	emitted dose	27.0

Per the records, this molecule ( C=C(C)[C@@H]1CCC(C)=C[C@H]1c1c(O)cc(CCCCC)cc1O [CBD, cannabidiol, reference compound] ) has emitted dose equal to 301.6
